- tested_on: human CB1 receptor (Homo sapiens)
- Construct: expressed in transfected cells; membrane-enriched fractions
- assay_overview: competitive radioligand binding assay, displacement of [3H]CP55,940, CB1
- protocol_conditions: Table 1; percent inhibition at 10 μM
measured_property: inhibition at 10 µM (%)

Before answering, review these 3 worked examples.
compound_structure | recorded_value
CCCCOC(=O)Cn1nnc(-c2ccccc2)c1-c1ccc(C(F)(F)F)cc1 | 16.3
CCCCOC(=O)Cn1nnc(-c2cc(Cl)cc(Cl)c2)c1-c1cc(Cl)cc(Cl)c1 | 29.9
C=CCNC(=O)Cn1nnc(-c2ccccc2)c1-c1ccccc1 | 15.4

A = O=C(Cn1nnc(-c2ccc(Cl)cc2Cl)c1-c1ccc(Cl)cc1Cl)N1CCCCC1
B = CCCCN(CCCC)C(=O)Cn1nnc(-c2ccccc2)c1-c1ccccc1
Q. // which entry has the larger inhibition at 10 µM value, A or B ? Returns: label corresponding to the selected item.
A. A

---

- tested_on: human CB1 receptor (Homo sapiens)
- Construct: expressed in transfected cells; membrane-enriched fractions
- assay_overview: competitive radioligand binding assay, displacement of [3H]CP55,940, CB1
- protocol_conditions: Table 2; percent inhibition at 10 μM
measured_property: inhibition at 10 µM (%)

molecule | inhibition at 10 µM / %
CC1CCC(NC(=O)Cn2nc(-c3ccc(Cl)cc3)c(-c3ccc(Cl)cc3Cl)n2)CC1 (stereo not shown) | 92.1
O=C(Cn1nc(-c2ccc(Cl)cc2)c(-c2ccc(Cl)cc2Cl)n1)NCc1ccc(Cl)cc1Cl | 90.5
O=C(Cn1nc(-c2ccc(Cl)cc2Cl)c(-c2ccc(Cl)cc2Cl)n1)N[C@H](CO)Cc1ccccc1 | 88.2
CC(C)[C@H](NC(=O)Cn1nc(-c2ccc(Cl)cc2)c(-c2ccc(Cl)cc2Cl)n1)C(O)(c1ccccc1)c1ccccc1 | 89.5

---

- tested_on: human CB1 receptor (Homo sapiens)
- Construct: expressed in transfected cells; membrane-enriched fractions
- assay_overview: competitive radioligand binding assay, displacement of [3H]CP55,940, CB1
- protocol_conditions: Table 1; percent inhibition at 10 μM
measured_property: inhibition at 10 µM (%)

compound_structure | inhibition at 10 µM, %
CCCOC(=O)Cn1nnc(-c2ccc(Cl)cc2)c1-c1ccc(Cl)cc1 | 28.3
CC(C)(C)OC(=O)NNC(=O)Cn1nnc(-c2ccccc2)c1-c1ccccc1 | 14.1
CCCCOC(=O)Cn1nncc1-c1ccccc1 | 22

1 = CCCCCCCCOC(=O)Cn1nnc(-c2ccc(Cl)cc2)c1-c1ccc(Cl)cc1
2 = CCCCOC(=O)Cn1nnc(-c2cccc(F)c2)c1-c1cccc(F)c1
3 = CCCCOC(=O)Cn1nnc(-c2ccccc2)c1-c1ccc([N+](=O)[O-])cc1
Q. Exam item: list the entries in increasing order of inhibition at 10 µM. Please reply with the labels ordered as requested. Many thanks.
A. 3, 2, 1

---

- tested_on: human CB1 receptor (Homo sapiens, UniProt P21554)
- Construct: expressed in transfected cells; membrane-enriched fractions
- Sequence (P21554 whole entry): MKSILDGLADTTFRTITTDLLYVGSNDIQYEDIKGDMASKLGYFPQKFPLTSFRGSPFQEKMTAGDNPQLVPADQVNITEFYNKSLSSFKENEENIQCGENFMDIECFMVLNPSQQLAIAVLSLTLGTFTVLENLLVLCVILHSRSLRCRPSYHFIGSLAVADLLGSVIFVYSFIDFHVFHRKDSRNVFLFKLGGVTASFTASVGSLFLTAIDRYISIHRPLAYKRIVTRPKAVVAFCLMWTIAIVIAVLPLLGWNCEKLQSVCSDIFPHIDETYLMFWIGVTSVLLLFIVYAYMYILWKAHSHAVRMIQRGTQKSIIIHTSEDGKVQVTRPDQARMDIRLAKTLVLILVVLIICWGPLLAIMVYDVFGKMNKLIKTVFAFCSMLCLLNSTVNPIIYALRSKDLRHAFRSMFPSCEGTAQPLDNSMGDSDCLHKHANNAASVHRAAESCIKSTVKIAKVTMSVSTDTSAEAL
- assay_overview: competitive radioligand binding assay, displacement of [3H]CP55,940, CB1
- protocol_conditions: Table 2; percent inhibition at 10 μM
measured_property: inhibition at 10 µM (%)

compound_structure | readout_units | inhibition at 10 µM
Cc1cc(C)cc(NC(=O)n2nc(-c3ccc(Cl)cc3Cl)c(-c3ccc(Cl)cc3Cl)n2)c1 | % | 12.7
COc1cccc(CNC(=O)Cn2nc(-c3ccc(Cl)cc3)c(-c3ccc(Cl)cc3Cl)n2)c1 | % | 69.5
Cc1ccccc1CNC(=O)Cn1nc(-c2ccc(Cl)cc2)c(-c2ccc(Cl)cc2Cl)n1 | % | 94.5
CCCCOC(=O)Cn1nc(-c2ccc(Cl)cc2)c(-c2ccc(Cl)cc2Cl)n1 | % | 67.4

1 = O=C(Cn1nc(-c2ccc(Cl)cc2)c(-c2ccc(Cl)cc2Cl)n1)NCc1ccc(F)c(F)c1
2 = CCCCCCCCNC(=O)n1nc(-c2ccc(Cl)cc2Cl)c(-c2ccc(Cl)cc2Cl)n1
3 = CCCCCCCOC(=O)Cn1nc(-c2ccc(Cl)cc2Cl)c(-c2ccc(Cl)cc2Cl)n1
4 = CCCCCCCCC(=O)n1nc(-c2ccc(Cl)cc2)c(-c2ccc(Cl)cc2)n1
Q. Thanks in advance: please rank these 4 entries by inhibition at 10 µM, highest to lowest. The labels, placed in the requested order, form the answer.
A. 1, 3, 2, 4
